Provide the recorded IC50 for the entries that follow.
Study System: UniProt:P20309
Experiment: biochemical
Format: binding
Conditions Used: M3 binding IC50

Task: Field request: IC50 | item: O=C(C[N+]12CCC(CC1)[C@@H](OC(=O)C1(c3ccccc3)CCCCCC1)C2)Nc1cnccn1.[Br-] [Example 16]
Result: < 2 nM

Task: Field request: IC50 | item: O=C(C[N+]12CCC(CC1)[C@@H](OC(=O)C1(c3ccccc3)CCCCCC1)C2)NCCOc1ccccc1 [Example 18]
Result: < 2 nM

Task: Field request: IC50 | item: O=C(O[C@H]1C[N+]2(CCOc3ccccc3)CCC1CC2)C1(c2ccccc2)CCCCCC1 [Example 11]
Result: < 2 nM

Task: Field request: IC50 | item: O=C(C[N+]12CCC(CC1)[C@@H](OC(=O)C1(c3ccccc3)CCCCCC1)C2)c1cccc(F)c1 [Example 19]
Result: < 2 nM

Task: Field request: IC50 | item: Cc1cnc(NC(=O)C[N+]23CCC(CC2)[C@@H](OC(=O)C2(c4ccccc4)CCCCCC2)C3)cn1 [Example 33]
Result: < 2 nM

Task: Field request: IC50 | item: O=C(O[C@H]1C[N+]2(Cc3ccccc3)CCC1CC2)C1(c2ccccc2)CCCCCC1 [Example 6]
Result: > 10 nM

Task: Field request: IC50 | item: COc1ccc(CC[N+]23CCC(CC2)[C@@H](OC(=O)C2(c4ccccc4)CCCCCC2)C3)cc1Cl [Example 38]
Result: < 2 nM

Task: Field request: IC50 | item: O=C(C[N+]12CCC(CC1)[C@@H](OC(=O)C1(c3ccccc3)CCCCCC1)C2)N1CCCC1 [Example 14]
Result: 2 to 10 nM

Task: Field request: IC50 | item: O=C(O[C@H]1C[N+]2(CCOCc3ccccc3)CCC1CC2)C1(c2ccccc2)CCCCCC1 [Example 12]
Result: < 2 nM

Task: Field request: IC50 | item: O=C(O[C@H]1C[N+]2(Cc3cccc(OC(F)(F)F)c3)CCC1CC2)C1(c2ccccc2)CCCCCC1 [Example 7]
Result: > 10 nM

Task: Field request: IC50 | item: O=C(O[C@H]1C[N+]2(CCc3cccc(Cl)c3)CCC1CC2)C1(c2ccccc2)CCCCCC1 [Example 35]
Result: < 2 nM

Task: Field request: IC50 | item: O=C(C[N+]12CCC(CC1)[C@@H](OC(=O)C1(c3ccccc3)CCCCCC1)C2)NCCCc1ccccc1 [Example 37]
Result: 2 to 10 nM

Task: Field request: IC50 | item: N#Cc1ccc(CC[N+]23CCC(CC2)[C@@H](OC(=O)C2(c4ccccc4)CCCCCC2)C3)cc1 [Example 29]
Result: 2 to 10 nM

Task: Field request: IC50 | item: O=C(O[C@H]1C[N+]2(CCc3ccc4c(c3)OCO4)CCC1CC2)C1(c2ccccc2)CCCCCC1 [Example 28]
Result: < 2 nM

Task: Field request: IC50 | item: O=C(C[N+]12CCC(CC1)[C@@H](OC(=O)C1(c3ccccc3)CCCCCC1)C2)Nc1ccc(Cl)nn1 [Example 21]
Result: < 2 nM

* * *

Provide the recorded pIC50 for the entries that follow.
Study System: human muscarinic acetylcholine M3 receptor (M3-ACh) (Homo sapiens, UniProt P20309)
Sequence (P20309 whole entry): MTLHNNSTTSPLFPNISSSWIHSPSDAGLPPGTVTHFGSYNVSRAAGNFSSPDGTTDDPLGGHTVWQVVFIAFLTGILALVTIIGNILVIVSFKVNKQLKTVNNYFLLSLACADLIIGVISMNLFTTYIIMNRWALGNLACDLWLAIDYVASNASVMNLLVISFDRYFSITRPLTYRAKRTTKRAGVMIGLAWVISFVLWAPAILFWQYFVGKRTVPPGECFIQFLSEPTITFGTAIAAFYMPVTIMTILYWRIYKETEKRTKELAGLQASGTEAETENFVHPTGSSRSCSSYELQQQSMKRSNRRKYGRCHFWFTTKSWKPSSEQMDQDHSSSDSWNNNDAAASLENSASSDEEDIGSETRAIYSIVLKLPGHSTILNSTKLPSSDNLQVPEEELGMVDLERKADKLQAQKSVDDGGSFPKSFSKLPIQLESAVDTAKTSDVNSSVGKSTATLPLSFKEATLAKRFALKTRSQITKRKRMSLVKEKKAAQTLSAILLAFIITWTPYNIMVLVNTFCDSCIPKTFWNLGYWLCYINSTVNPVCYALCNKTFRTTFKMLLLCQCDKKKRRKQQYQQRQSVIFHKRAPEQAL
Experiment: biochemical
Format: binding
Conditions Used: pIC50
Note on pIC50: it is the negative log10 of concentration, concentration in mol/L.

Task: Field request: pIC50 | item: O=C(O[C@H]1C[N+]2(CCCOc3ccccc3)CCC1CC2)C1(c2ccccc2)CCCCCC1
Result: 10.30

Task: Field request: pIC50 | item: COc1cccc(C[N+]23CCC(CC2)[C@@H](OC(=O)C2(c4ccccc4)CCCCCC2)C3)c1
Result: 8.50

Task: Field request: pIC50 | item: C[N+]12CCC(CC1)[C@@H](OC(=O)C1(c3ccccc3)CCCCCC1)C2
Result: 8.50

Task: Field request: pIC50 | item: O=C(C[N+]12CCC(CC1)[C@@H](OC(=O)C1(c3ccccc3)CCCCCC1)C2)Nc1ccon1
Result: 10.20

* * *

Study System: human muscarinic acetylcholine M3 receptor (M3-ACh) (Homo sapiens, UniProt P20309)
Experiment: biochemical
Assay type: binding
Conditions Used: pIC50 of comparative compounds containing a cyclohexyl (C6) ring in place of cycloheptyl (C7)
Provide the recorded pIC50 for the entries that follow.
Note on pIC50: it is the negative log10 of concentration, concentration in mol/L.

Task: Field request: pIC50 | item: C[N+]12CCC(CC1)[C@@H](OC(=O)C1(c3ccccc3)CCCCC1)C2 [compound 5, reference compound]
Result: 7.30

Task: Field request: pIC50 | item: O=C(C[N+]12CCC(CC1)[C@@H](OC(=O)C1(c3ccccc3)CCCCC1)C2)Nc1cnccn1 [compound 6, reference compound]
Result: 9.70

* * *

Study System: human muscarinic acetylcholine M3 receptor (M3-ACh) (Homo sapiens, UniProt P20309)
Experiment: biochemical
Type: binding
Conditions Used: pIC50 of comparative compounds containing a cyclooctyl (C8) ring in place of cycloheptyl (C7)
Observed Property: pIC50
Note on pIC50: it is the negative log10 of concentration, concentration in mol/L.

Task: Identify the measured pIC50 of O=C(C[N+]12CCC(CC1)[C@@H](OC(=O)C1(c3ccccc3)CCCCCCC1)C2)Nc1cnccn1 [compound 9, reference compound] for human muscarinic acetylcholine M3 receptor (M3-ACh) (Homo sapiens, UniProt P20309).
Result: 9.50

Task: Identify the measured pIC50 of C[N+]12CCC(CC1)[C@@H](OC(=O)C1(c3ccccc3)CCCCCCC1)C2 [compound 8, reference compound] for human muscarinic acetylcholine M3 receptor (M3-ACh) (Homo sapiens, UniProt P20309).
Result: 7.40

* * *

Study System: human muscarinic acetylcholine M3 receptor (M3-ACh) (Homo sapiens, UniProt P20309)
Experiment: biochemical
Assay type: binding
Conditions Used: M3 binding IC50
pIC50: −log10 of the molar value.
Provide the recorded pIC50 for the entries that follow.

Task: Field request: pIC50 | item: O=C(C[N+]12CCC(CC1)[C@@H](OC(=O)C1(c3ccccc3)CCCCCC1)C2)N1CCOCC1 [Example 15]
Result: 8.00 to 8.70

Task: Field request: pIC50 | item: Cc1cc(NC(=O)C[N+]23CCC(CC2)[C@@H](OC(=O)C2(c4ccccc4)CCCCCC2)C3)no1 [Example 20]
Result: > 8.70

Task: Field request: pIC50 | item: O=C(O[C@H]1C[N+]2(CCc3cccc(C(F)(F)F)c3)CCC1CC2)C1(c2ccccc2)CCCCCC1 [Example 27]
Result: > 8.70

Task: Field request: pIC50 | item: O=C(C[N+]12CCC(CC1)[C@@H](OC(=O)C1(c3ccccc3)CCCCCC1)C2)Nc1ccon1 [Example 4]
Result: > 8.70

Task: Field request: pIC50 | item: O=C1c2ccccc2C(=O)N1CC[N+]12CCC(CC1)[C@@H](OC(=O)C1(c3ccccc3)CCCCCC1)C2 [Example 30]
Result: < 8.00

Task: Field request: pIC50 | item: O=C(O[C@H]1C[N+]2(CC3(c4ccc(Cl)cc4)CC3)CCC1CC2)C1(c2ccccc2)CCCCCC1 [Example 32]
Result: 8.00 to 8.70

Task: Field request: pIC50 | item: O=C(C[N+]12CCC(CC1)[C@@H](OC(=O)C1(c3cccs3)CCCCCC1)C2)Nc1ccon1 [Example 13]
Result: > 8.70

Task: Field request: pIC50 | item: COc1cccc(C[N+]23CCC(CC2)[C@@H](OC(=O)C2(c4ccccc4)CCCCCC2)C3)c1 [Example 10]
Result: 8.00 to 8.70

Task: Field request: pIC50 | item: O=C(O[C@H]1C[N+]2(Cc3ccc(F)cc3)CCC1CC2)C1(c2ccccc2)CCCCCC1 [Example 5]
Result: < 8.00

Task: Field request: pIC50 | item: C[N+]12CCC(CC1)[C@@H](OC(=O)C1(c3ccccc3)CCCCCC1)C2 [Example 2]
Result: 8.00 to 8.70

Task: Field request: pIC50 | item: O=C(C[N+]12CCC(CC1)[C@@H](OC(=O)C1(c3ccccc3)CCCCCC1)C2)Nc1cncc(Cl)n1 [Example 31]
Result: > 8.70

Task: Field request: pIC50 | item: O=C(O[C@H]1C[N+]2(CCc3ccccc3)CCC1CC2)C1(c2ccccc2)CCCCCC1 [Example 26]
Result: > 8.70

Task: Field request: pIC50 | item: Cc1ccc(CC[N+]23CCC(CC2)[C@@H](OC(=O)C2(c4ccccc4)CCCCCC2)C3)s1 [Example 25]
Result: > 8.70

Task: Field request: pIC50 | item: O=C(C[N+]12CCC(CC1)[C@@H](OC(=O)C1(c3ccccc3)CCCCCC1)C2)Nc1cccc(F)c1 [Example 22]
Result: > 8.70

Task: Field request: pIC50 | item: COc1cccc(CC[N+]23CCC(CC2)[C@@H](OC(=O)C2(c4ccccc4)CCCCCC2)C3)c1 [Example 24]
Result: > 8.70
